- targetOrTestSystem: glutamate-activated channels of the GRIN1/2A subtype stably transfected in HEK 293 cells (Homo sapiens (Human), UniProt Q05586+Q12879)
- Sequence (Q12879 whole entry, looked up, other chains not shown): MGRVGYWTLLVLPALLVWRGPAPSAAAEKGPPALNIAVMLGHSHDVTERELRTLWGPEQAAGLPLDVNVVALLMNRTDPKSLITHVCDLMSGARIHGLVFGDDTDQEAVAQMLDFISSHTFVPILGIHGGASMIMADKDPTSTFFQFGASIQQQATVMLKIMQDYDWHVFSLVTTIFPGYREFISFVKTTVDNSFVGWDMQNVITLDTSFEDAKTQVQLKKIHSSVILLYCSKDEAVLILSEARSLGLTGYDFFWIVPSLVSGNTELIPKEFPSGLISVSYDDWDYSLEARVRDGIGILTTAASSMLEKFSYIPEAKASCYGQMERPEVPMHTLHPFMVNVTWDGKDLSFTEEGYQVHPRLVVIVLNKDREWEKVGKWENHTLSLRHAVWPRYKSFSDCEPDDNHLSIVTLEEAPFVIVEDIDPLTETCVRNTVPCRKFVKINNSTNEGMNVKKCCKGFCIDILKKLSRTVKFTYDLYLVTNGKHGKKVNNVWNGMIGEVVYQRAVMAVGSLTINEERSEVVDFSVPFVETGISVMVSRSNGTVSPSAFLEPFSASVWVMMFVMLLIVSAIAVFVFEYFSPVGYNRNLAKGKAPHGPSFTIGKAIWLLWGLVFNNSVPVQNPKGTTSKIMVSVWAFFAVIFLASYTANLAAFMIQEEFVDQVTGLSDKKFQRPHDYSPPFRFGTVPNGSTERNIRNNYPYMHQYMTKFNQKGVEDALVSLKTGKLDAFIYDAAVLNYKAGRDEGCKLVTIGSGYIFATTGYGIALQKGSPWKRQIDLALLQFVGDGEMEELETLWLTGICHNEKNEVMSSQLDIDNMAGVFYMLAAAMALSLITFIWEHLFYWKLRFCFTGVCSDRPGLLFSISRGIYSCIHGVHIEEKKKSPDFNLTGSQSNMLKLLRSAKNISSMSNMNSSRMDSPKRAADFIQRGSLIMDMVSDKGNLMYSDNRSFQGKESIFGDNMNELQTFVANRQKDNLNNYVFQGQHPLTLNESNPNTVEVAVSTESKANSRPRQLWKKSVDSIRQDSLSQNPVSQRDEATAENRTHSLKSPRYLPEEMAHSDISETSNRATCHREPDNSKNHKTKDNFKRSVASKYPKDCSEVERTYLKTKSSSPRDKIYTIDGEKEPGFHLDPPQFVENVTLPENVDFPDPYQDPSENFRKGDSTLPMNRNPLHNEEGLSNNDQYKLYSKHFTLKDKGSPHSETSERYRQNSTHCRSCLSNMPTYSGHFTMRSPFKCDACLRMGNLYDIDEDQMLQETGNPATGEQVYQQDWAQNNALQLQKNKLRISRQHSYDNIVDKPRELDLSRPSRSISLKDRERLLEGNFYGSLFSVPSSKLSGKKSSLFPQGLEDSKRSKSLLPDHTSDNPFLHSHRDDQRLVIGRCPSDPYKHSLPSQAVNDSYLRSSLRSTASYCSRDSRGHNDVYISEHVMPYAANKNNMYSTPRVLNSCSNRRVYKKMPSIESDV
- assayName: Automated patch-clamp system (QPatch HTX), percent potentiation at 1 μM
- Assay type: cell-based
- runConditions: HEK293, 1 μM test compound, 300 μM NMDA with 8 μM glycine, HEK 293 GRIN1/2A, read-out: GluN2A PCA % potentiation at 1 μM
measurementLabel: activation at 1 µM

INPUT: Look up activation at 1 µM: C[C@H]([C@@H](O)C(F)(F)F)[C@H]1CC[C@H]2[C@@H]3CC=C4C[C@](O)(C(F)(F)F)CC[C@]4(C)[C@H]3CC[C@]12C [Compound 53]
OUTPUT: -40 to -10%
